src = patent US12338203B2

- Target Or System: human LPAR1 (Homo sapiens)
- Construct: expressed in transfected cells
- Sequence (Q92633 whole entry): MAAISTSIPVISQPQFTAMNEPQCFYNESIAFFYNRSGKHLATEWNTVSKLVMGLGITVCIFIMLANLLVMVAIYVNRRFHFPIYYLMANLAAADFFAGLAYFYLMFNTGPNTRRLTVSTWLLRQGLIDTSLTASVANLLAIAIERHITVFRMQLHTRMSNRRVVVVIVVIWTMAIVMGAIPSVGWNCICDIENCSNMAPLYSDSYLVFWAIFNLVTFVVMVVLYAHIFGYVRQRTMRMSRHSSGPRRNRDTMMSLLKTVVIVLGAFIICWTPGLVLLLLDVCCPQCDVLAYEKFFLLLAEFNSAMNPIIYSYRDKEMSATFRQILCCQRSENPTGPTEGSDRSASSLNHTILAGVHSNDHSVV
- Test: Test Example 1: antagonism against response of LPA-induced increase in intracellular Ca2+ concentration in RH7777 cells stably expressing human LPAR1
- Type: cell-based
- Applied Conditions: RH7777 cells stably expressing human LPAR1; Fluo-4 fluorescence, FDSS6000; read-out: IC50 value (concentration producing 50% antagonism against response of LPA-induced increase in intracellular Ca2+ concentration) (converted)
Recorded measurements of IC50, one per entry

>  <Compound>
COc1cc(C(C)N(CCO[C@@H](C)c2ccccc2)C(=O)NC2(C(=O)O)CC(F)(F)C2)c(C)c(OC)c1C1CC1 (stereo partly shown)

>  <IC50 (nM)>
3.37

$$$$
>  <Compound>
CCOc1cc(C(C)N(CCCCc2ccccc2)C(=O)NC2(C(=O)O)CC(F)(F)C2)cc(OCC)c1OCC (stereo not shown)

>  <IC50 (nM)>
7.44

$$$$
>  <Compound>
COc1cc(C(C)N(CCOCc2ccccc2)C(=O)NC2(C(=O)O)CCOCC2)c(Cl)c(OC)c1C(C)=O (stereo not shown)

>  <IC50 (nM)>
30

$$$$
>  <Compound>
CCOc1cc([C@@H](C)N(CCC2Cc3ccccc3C2)C(=O)NC2(C(=O)O)CC(F)(F)C2)cc(OCC)c1C

>  <IC50 (nM)>
2.74

$$$$

====

- Target Or System: human LPAR1 (Homo sapiens)
- Construct: expressed in transfected cells
- Test: Test Example 1: antagonism against response of LPA-induced increase in intracellular Ca2+ concentration in RH7777 cells stably expressing human LPAR1
- Type: cell-based
- Applied Conditions: RH7777 cells stably expressing human LPAR1; Fluo-4 fluorescence, FDSS6000; read-out: IC50 value (concentration producing 50% antagonism against response of LPA-induced increase in intracellular Ca2+ concentration) (converted)
Rule: IC50 below 4 nM gives yes (1). Equal to or above 4 nM gives no (0).

>  <Molecule>
CCOc1cc([C@@H](C)N(CCCCc2ccccc2)C(=O)NC2(C(=O)O)CC(OC)C2)cc(OCC)c1C(C)O (single isomer, unassigned) [Example 1-88]

>  <Label>
yes (1)

$$$$
>  <Molecule>
COc1cc(C(C)N(CCOCc2ccccc2)C(=O)NC2(C(=O)O)CCC2)c(C)c(OC)c1C (stereo not drawn)

>  <Label>
no (0)

$$$$
>  <Molecule>
CCOc1cc(C(C)N(CCCCc2ccccc2)C(=O)NC2(C(=O)O)CC(F)(F)C2)cc(F)c1C(C)O (stereo not drawn)

>  <Label>
no (0)

$$$$
>  <Molecule>
CCNc1cc(C(C)N(CCCCc2ccccc2)C(=O)NC2(C(=O)O)CCC2)cc(OCC)c1C#N (stereo not drawn)

>  <Label>
yes (1)

$$$$
>  <Molecule>
COc1cc(C(C)N(CCOCc2ccccc2)C(=O)NC2(C(=O)O)CC(OC)C2)c(C)c(OC)c1C(C)=O (stereo not drawn)

>  <Label>
no (0)

$$$$
>  <Molecule>
CCOc1cc([C@@H](C)N(CCCCc2ccccc2)C(=O)NC2(c3nn[nH]n3)CC(F)(F)C2)c(Cl)c(OCC)c1C(C)O (stereo partly drawn) [Example 10-11]

>  <Label>
no (0)

$$$$
>  <Molecule>
CCOc1cc(C(C)N(CCCCc2ccccc2)C(=O)NC2(C(=O)O)CC(F)(F)C2)cc(OCC)c1C(C)=O (stereo not drawn) [Example 1-29]

>  <Label>
yes (1)

$$$$
>  <Molecule>
CCOc1cc([C@@H](C)N(CCCC(C)c2ccccc2)C(=O)NC2(C(=O)O)CC(F)(F)C2)cc(OCC)c1C (stereo partly drawn)

>  <Label>
yes (1)

$$$$
>  <Molecule>
CCCOc1cc(C(C)N(CCCCc2ccccc2)C(=O)NC2(C(=O)O)CC(F)(F)C2)cc(OCC)c1C (stereo not drawn)

>  <Label>
no (0)

$$$$
>  <Molecule>
COc1cc(C(C)N(CCOCc2ccccc2)C(=O)NC2(C(=O)O)CC(OC)C2)c(Cl)c(OC)c1C1CC1 (stereo not drawn) [Example 5-161]

>  <Label>
yes (1)

$$$$
>  <Molecule>
CCOc1c(C2CC2)ccc([C@@H](C)N(CCO[C@H](C)c2ccccc2)C(=O)NC2(C(=O)O)CCC2)c1C

>  <Label>
yes (1)

$$$$
>  <Molecule>
CCOC1CC(NC(=O)N(CCOCc2ccccc2)[C@H](C)c2cc(OC)c(C)c(OC)c2)(C(=O)O)C1 (stereo partly drawn)

>  <Label>
no (0)

$$$$
>  <Molecule>
COc1cc(C(C)N(CCOCc2ccccc2)C(=O)NC2(C(=O)O)CCOCC2)c(Cl)c(OC)c1C1CC1 (stereo not drawn)

>  <Label>
no (0)

$$$$
>  <Molecule>
CCOc1cc([C@@H](C)N(CCCCc2ccccc2)C(=O)NC2(C(=O)O)CC(N3CCCC3)C2)cc(OCC)c1C (stereo partly drawn)

>  <Label>
no (0)

$$$$
>  <Molecule>
CCOc1c(C(C)=O)ccc([C@@H](C)N(CCCC(F)(F)c2ccccc2)C(=O)N[C@]2(C(=O)O)C[C@H](OC)C2)c1C

>  <Label>
no (0)

$$$$
>  <Molecule>
CCOc1cc([C@@H](C)N(CCO[C@@H](C)c2ccccc2)C(=O)N[C@]2(C(=O)O)C[C@@H](OCC)C2)cc(OCC)c1C(C)=O

>  <Label>
yes (1)

$$$$
>  <Molecule>
CCOc1cc([C@@H](C)N(CCCCc2ccccc2)C(=O)NC2CCC[C@H]2C(=O)O)cc(OCC)c1C(C)=O (stereo partly drawn)

>  <Label>
yes (1)

$$$$
>  <Molecule>
CCOc1cc(C(C)N(CCCC(F)(F)c2ccccc2)C(=O)NC2(c3nn[nH]n3)CC2)cc(OCC)c1C(C)=O (stereo not drawn)

>  <Label>
yes (1)

$$$$
>  <Molecule>
COc1cc(C(C)N(CCOCc2ccccc2)C(=O)NC2(C(=O)O)CC(F)(F)C2)c(C)c(OC)c1C1CC1 (stereo not drawn)

>  <Label>
yes (1)

$$$$
>  <Molecule>
CCOc1cc([C@@H](C)N(CCCCc2ccccc2)C(=O)NC2CCC(C(=O)O)C2)cc(OCC)c1C(C)=O (stereo partly drawn) [Example 1-140]

>  <Label>
no (0)

$$$$
>  <Molecule>
CCO[C@H]1C[C@@](NC(=O)N(CCO[C@@H](C)c2ccccc2)C(C)c2cc(OC)c(C(C)=O)c(OC)c2Cl)(C(=O)O)C1 (stereo partly drawn)

>  <Label>
no (0)

$$$$
>  <Molecule>
CCOc1cc(C(C)N(CCCCc2ccccc2)C(=O)NC2(C(=O)O)CC(F)(F)C2)cc(OCC)c1C1CC1 (stereo not drawn)

>  <Label>
yes (1)

$$$$
>  <Molecule>
CCOc1cc(C(C)N(CCCCc2ccccc2)C(=O)NC2(c3nn[nH]n3)CCC2)cc(OCC)c1C(C)=O (stereo not drawn)

>  <Label>
yes (1)

$$$$
>  <Molecule>
COc1cc(C(C)N(CCOCc2ccccc2)C(=O)NC2(C(=O)O)CC(F)(F)C2)c(C)c(OC)c1C(C)=O (stereo not drawn)

>  <Label>
yes (1)

$$$$
>  <Molecule>
CCOc1cc([C@@H](C)N(CCCCc2ccccc2)C(=O)NC2(C(=O)O)CC(F)(F)C2)cc(OCC)c1C(C)=O

>  <Label>
yes (1)

$$$$
>  <Molecule>
CCOc1cc([C@@H](C)N(CCCCc2ccccc2)C(=O)NC2(C(=O)O)CC(F)(F)C2)cc(OCC)c1C1CC1

>  <Label>
yes (1)

$$$$

====

- Target Or System: human LPAR1 (Homo sapiens)
- Construct: expressed in transfected cells
- Test: Test Example 1: antagonism against response of LPA-induced increase in intracellular Ca2+ concentration in RH7777 cells stably expressing human LPAR1
- Assay type: cell-based
- Applied Conditions: RH7777 cells stably expressing human LPAR1; Fluo-4 fluorescence, FDSS6000; read-out: IC50 value (concentration producing 50% antagonism against response of LPA-induced increase in intracellular Ca2+ concentration) (converted)

>  <Compound>
CCOc1cc(C(C)N(CCCCc2ccccc2)C(=O)NC2(C(=O)O)CC(F)(F)C2)cc(O)c1C(C)=O (stereo not shown)

>  <Target Or System>
human LPAR1 (Homo sapiens)

>  <IC50 / µM>
0.00676

$$$$
>  <Compound>
CCOc1cc([C@@H](C)N(Cc2cc3ccccc3[nH]2)C(=O)NC2(C(=O)O)CC(F)(F)C2)cc(OCC)c1C

>  <Target Or System>
human LPAR1 (Homo sapiens)

>  <IC50 / µM>
0.733

$$$$
>  <Compound>
CCOc1cc([C@@H](C)N(CCCC(F)(F)c2ccccc2)C(=O)NC2(C(=O)O)CC(F)(F)C2)cc(OCC)c1C

>  <Target Or System>
human LPAR1 (Homo sapiens)

>  <IC50 / µM>
0.00115

$$$$
>  <Compound>
CCOc1cc([C@@H](C)N(CC(=O)NCc2ccccc2)C(=O)NC2(C(=O)O)CC(F)(F)C2)cc(OCC)c1C

>  <Target Or System>
human LPAR1 (Homo sapiens)

>  <IC50 / µM>
0.384

$$$$
